# ASSAY_METHOD_TEXT: NCI Yeast Anticancer Drug Screen. Data for the mlh1 rad18 strain (AID 175)
# STATED_CONDITIONS: S. cerevisiae mlh1 rad18 strain growth inhibition; at 50.0 µM; hits give high values
The panel holds about 79,000 compounds, 15% with a hit somewhere; the sample as a whole holds those more often.
MEASURED_ENDPOINT: growth inhibition (%)
Answers are plain numbers, in %.

A selection of reference data follows.
CSCC1CC(c2ccc(Cl)cc2)=NO1 (centres undefined) ... 32.6
O=C(O)c1ccc(C(=O)O)c(C(=O)Nc2ccc3c(c2)C(=O)c2ccccc2-3)c1 ... 48.9
CC(=O)C(c1ccccc1)N(CCO)Cc1ccccc1 (centres undefined) ... 1.8
O=C1C(=C(c2ccc([N+](=O)[O-])cc2)N2CCOCC2)C(=O)c2ccccc21 ... 10.3
CC(C)(C#N)OC(=O)c1cccc(C(=O)OC(C)(C)C#N)c1Sc1ccccc1 ... -1.55
CC1=CC[C@](C)(O)[C@@]2(C)CC[C@H]3C(=C(C)C)C(=O)C[C@]3(C)C[C@H]12 ... 17.5

Below is a list of compounds. For each, state its recorded growth inhibition.
1. COc1ccc(C(C#N)N(C)C)cc1OC (centres undefined)
2. Nc1ccc2cc(S(=O)(=O)O)cc(S(=O)(=O)O)c2c1
3. CCN(CC)C(=O)C1CCN(Cc2ccc3c(c2)CCC3)CC1
4. Cc1ccc(/C=N/NS(=O)(=O)c2ccccc2)cc1
5. CN(C)B(B(N(C)C)N(C)C)N(C)C
6. O=C1N(O)C2(C=CCCC2)/C(=N/O)C12CCCCC2 (centres undefined)
7. Cc1ccc(NC(=O)/C(CC(=O)c2c[n+](=O)c3ccccc3n2O)=N\NC(=O)C[n+]2ccccc2)cc1

[5.15, 31.8, 3.95, 24.9, 34.8, 12.1, -0.85]

* * *

# ASSAY_METHOD_TEXT: NCI Yeast Anticancer Drug Screen. Data for the bub3 strain (AID 167)
# STATED_CONDITIONS: S. cerevisiae bub3 mutant strain, at 50.0 µM
This is part of a sample that, as a whole, favours compounds with a hit. Of some 79,000 tested, about 15% had one in any assay. Calls of active or inactive are those of the source. No stated cut-off is given here; in the data, active means growth inhibition above about 70%; inactive means the rest.
Thanks in advance; please answer with one of these: active, inactive

COC(=O)C1N=CSCC1(C)O (stereo unspecified) ... inactive

Please let me know the test result on file for "C=CCSc1nc2ccc(N=Cc3ccc([N+](=O)[O-])cc3)cc2s1" .
inactive

Please let me know the test result on file for CC1COB(c2ccccc2)OCC(C)N1CNC(=O)C1=C(O)C2(O)C(O)=C3C(=O)C4C(O)=CC=CC4C(C)(O)C3CC2C(N(C)C)C1=O (stereo unspecified) .
inactive

Please let me know the test result on file for "COC1=CCC2=C(CCO2)C1" .
inactive

Please let me know the test result on file for CCOC(=O)CCC(NC(=O)c1ccc(NC)c([N+](=O)[O-])c1)C(=O)OCC (stereo unspecified) .
inactive

Please let me know the test result on file for "COC(=O)c1ccccc1NC(=O)Nc1cc(Cl)ccc1OC" .
active

Please let me know the test result on file for "Cc1cc2c(cc1[N+](=O)[O-])OCCO2" .
inactive

Please let me know the test result on file for "C[Si](C)(C)CSCCO" .
inactive
